Each recorded value in this set is attributed to patent US20250228832A1.

# TGT: human M5 receptor (Homo sapiens, UniProt P08912)
# Construct: expressed in transfected cells
# Sequence (P08912 whole entry): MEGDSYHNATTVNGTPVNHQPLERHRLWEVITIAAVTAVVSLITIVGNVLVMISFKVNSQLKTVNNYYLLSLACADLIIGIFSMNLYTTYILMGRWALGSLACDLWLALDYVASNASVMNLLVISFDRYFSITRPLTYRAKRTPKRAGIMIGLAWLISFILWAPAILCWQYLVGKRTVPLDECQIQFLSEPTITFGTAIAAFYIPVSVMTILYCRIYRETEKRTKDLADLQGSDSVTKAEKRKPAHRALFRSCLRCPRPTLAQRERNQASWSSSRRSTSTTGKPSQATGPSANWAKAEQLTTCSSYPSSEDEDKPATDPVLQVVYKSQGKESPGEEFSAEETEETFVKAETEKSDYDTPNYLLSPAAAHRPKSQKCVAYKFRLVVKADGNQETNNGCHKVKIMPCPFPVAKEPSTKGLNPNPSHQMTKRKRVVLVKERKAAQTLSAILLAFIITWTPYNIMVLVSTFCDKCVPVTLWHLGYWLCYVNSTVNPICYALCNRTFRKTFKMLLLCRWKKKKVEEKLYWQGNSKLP
# ASSAY SUMMARY: HTRF IP-One curve shift assay, M5
# Format: cell-based
# TEST SETTINGS: M5; M4 PAM MK-4710
RESULT TYPE: τ (agonist pharmacology)

Worked cases, τ (agonist pharmacology) given:
>  <MOLECULE>
CCCCCCOc1nsnc1C1=CCCN(C)C1 [xanomeline, reference compound]

>  <REPORTED RESULT>
0.0

$$$$
>  <MOLECULE>
CC1OC2(CS1)CN1CCC2CC1 (stereo not shown) [cevimeline, Cevimeline, reference compound]

>  <REPORTED RESULT>
0.1

$$$$

[1] CCCCCOc1nsnc1C1=CCCCN1C
[2] CCCCCCCOc1nsnc1C1=CCCCN1C
## Input Between the entries labeled 1 and 2 , whose measured τ (agonist pharmacology) is lower? In your reply, give the label of the chosen option.
## Output 1

---

# TGT: human M3 receptor (Homo sapiens, UniProt P20309)
# Construct: expressed in transfected cells
# Sequence (P20309 whole entry): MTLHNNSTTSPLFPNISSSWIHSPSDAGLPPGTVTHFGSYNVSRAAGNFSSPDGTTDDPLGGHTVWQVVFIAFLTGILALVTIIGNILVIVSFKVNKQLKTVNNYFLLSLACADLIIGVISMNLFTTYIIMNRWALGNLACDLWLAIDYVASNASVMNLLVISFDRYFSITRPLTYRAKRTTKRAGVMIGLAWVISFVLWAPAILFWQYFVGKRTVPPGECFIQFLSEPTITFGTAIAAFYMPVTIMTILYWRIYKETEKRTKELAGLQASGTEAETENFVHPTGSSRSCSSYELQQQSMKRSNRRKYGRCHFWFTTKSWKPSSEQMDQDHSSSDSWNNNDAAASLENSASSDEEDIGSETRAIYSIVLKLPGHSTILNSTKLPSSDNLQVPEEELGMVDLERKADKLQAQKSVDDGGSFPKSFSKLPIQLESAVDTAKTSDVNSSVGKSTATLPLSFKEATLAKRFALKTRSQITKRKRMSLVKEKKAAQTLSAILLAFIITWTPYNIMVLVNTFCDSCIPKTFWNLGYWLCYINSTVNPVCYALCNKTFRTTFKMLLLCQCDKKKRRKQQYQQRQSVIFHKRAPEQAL
# ASSAY SUMMARY: HTRF IP-One curve shift assay, M3
# Assay type: cell-based
# TEST SETTINGS: MK-4710 concentration 3330 nM, read-out: Emax
RESULT TYPE: Emax (%)

>  <COMPOUND>
CCCCCOc1nsnc1C1=CCCCN1C

>  <Emax, %>
64.4

$$$$
>  <COMPOUND>
CC1OC2(CS1)CN1CCC2CC1 (stereo not shown) [cevimeline, Cevimeline, reference compound]

>  <Emax, %>
93.1

$$$$
>  <COMPOUND>
CCCCCCCOc1nsnc1C1=CCCCN1C

>  <Emax, %>
86

$$$$
>  <COMPOUND>
CCCCCCOc1nsnc1C1=CCCN(C)C1 [xanomeline, reference compound]

>  <Emax, %>
81.8

$$$$

---

# TGT: human M3 receptor (Homo sapiens, UniProt P20309)
# Construct: expressed in transfected cells
# ASSAY SUMMARY: HTRF IP-One curve shift assay, M3
# Format: cell-based
# TEST SETTINGS: MK-4710 concentration 0 nM
# Experimental: HTRF IP-One assays were performed using frozen cell aliquots prepared from CHO-K1 cell lines stably expressing human M1, M3, or M5 receptors. Cells were frozen following typical cell freezing protocols. […] Six μL of IP-1 detection reagents (IP-One Gq HTRF kit, Cisbio Cat #62IPAPEJ) were dispensed to the cells. […] Then, plates were read on an Envision plate reader following the Cisbio guidelines. Raw data for all assays was transmitted directly from plate readers into the Beacon database for processing. […]
RESULT TYPE: Emax (%)

>  <COMPOUND>
CCCCCCOc1nsnc1C1=CCCN(C)C1 [xanomeline, reference compound]

>  <REPORTED RESULT>
84.2

$$$$

[a] CC1OC2(CS1)CN1CCC2CC1 (stereo not shown) [cevimeline, Cevimeline, reference compound]
[b] CCCCCCCOc1nsnc1C1=CCCCN1C
[c] CCCCCOc1nsnc1C1=CCCCN1C
## Input Please list the entries, largest Emax first. Returns: the labels arranged in the requested order.
## Output a, b, c
(a: 118.7%, b: 80.8%, c: 46.7%)

---

# TGT: human M4 receptor (Homo sapiens, UniProt P08173)
# Construct: expressed in transfected cells
# ASSAY SUMMARY: SPA GTP (GTPgS) binding curve shift assay, M4
# Format: biochemical
# TEST SETTINGS: Emraclidine concentration 41.2 nM, read-out: Emax
RESULT TYPE: Emax (%)

[I] CCCCCCCOc1nsnc1C1=CCCCN1C
[II] CC1OC2(CS1)CN1CCC2CC1 (stereo not shown) [cevimeline, Cevimeline, reference compound]
## Input Of the two listed items, I and II , which carries the larger Emax figure? In your reply, give the label of the chosen option.
## Output I
(I: 24.5%, II: 13.2%)

---

# TGT: human M4 receptor (Homo sapiens, UniProt P08173)
# Construct: expressed in transfected cells
# Sequence (P08173 1-479): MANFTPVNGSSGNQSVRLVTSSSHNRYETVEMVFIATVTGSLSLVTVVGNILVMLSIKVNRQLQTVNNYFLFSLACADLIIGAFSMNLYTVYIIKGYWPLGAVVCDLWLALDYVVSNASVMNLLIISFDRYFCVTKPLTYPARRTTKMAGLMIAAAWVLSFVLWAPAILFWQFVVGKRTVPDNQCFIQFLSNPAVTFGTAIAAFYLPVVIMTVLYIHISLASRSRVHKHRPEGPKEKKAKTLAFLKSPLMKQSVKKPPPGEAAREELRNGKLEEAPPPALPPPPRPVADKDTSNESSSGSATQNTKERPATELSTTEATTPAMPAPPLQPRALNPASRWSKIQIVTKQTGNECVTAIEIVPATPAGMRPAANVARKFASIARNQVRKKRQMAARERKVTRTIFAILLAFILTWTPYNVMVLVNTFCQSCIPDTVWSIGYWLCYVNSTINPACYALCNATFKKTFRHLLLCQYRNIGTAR
# ASSAY SUMMARY: SPA GTP (GTPgS) binding curve shift assay, M4
# Type: biochemical
# TEST SETTINGS: MK-4710 concentration 0 nM
RESULT TYPE: Emax (%)

>  <COMPOUND>
CCCCCCOc1nsnc1C1=CCCN(C)C1 [xanomeline, reference compound]

>  <RESULT TYPE>
Emax

>  <REPORTED RESULT>
19.7

$$$$
>  <COMPOUND>
CCCCCCCOc1nsnc1C1=CCCCN1C

>  <RESULT TYPE>
Emax

>  <REPORTED RESULT>
14.0

$$$$

[1] CC1OC2(CS1)CN1CCC2CC1 (centres unmarked) [cevimeline, Cevimeline, reference compound]
[2] CC(=O)OCC[N+](C)(C)C [acetylcholine, reference compound]
[3] CCCCCOc1nsnc1C1=CCCCN1C
## Input Rank ascending by Emax. List labels; respect the requested ordering.
## Output 1, 3, 2
(1: 6.4%, 3: 12.6%, 2: 67.6%)

---

# TGT: human M1 receptor (Homo sapiens)
# Construct: expressed in transfected cells
# Sequence (P11229 1-460): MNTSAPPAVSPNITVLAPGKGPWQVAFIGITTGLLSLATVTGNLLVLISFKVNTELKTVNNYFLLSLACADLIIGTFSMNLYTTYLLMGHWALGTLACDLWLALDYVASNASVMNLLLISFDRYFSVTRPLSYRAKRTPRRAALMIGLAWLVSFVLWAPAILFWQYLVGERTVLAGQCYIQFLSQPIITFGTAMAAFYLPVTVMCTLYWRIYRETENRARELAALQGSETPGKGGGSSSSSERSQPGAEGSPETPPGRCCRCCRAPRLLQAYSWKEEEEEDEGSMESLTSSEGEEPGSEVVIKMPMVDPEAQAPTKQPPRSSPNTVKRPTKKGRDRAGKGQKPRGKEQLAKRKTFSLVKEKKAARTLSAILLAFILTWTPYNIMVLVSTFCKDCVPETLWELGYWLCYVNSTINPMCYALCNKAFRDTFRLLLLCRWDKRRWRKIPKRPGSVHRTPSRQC
# ASSAY SUMMARY: HTRF IP-One curve shift assay, M1
# Assay type: cell-based
# TEST SETTINGS: MK-4710 concentration 370 nM
RESULT TYPE: EC50 (nM)
Give just the number in nM; leave the unit off.

## Input Item CCCCCCCOc1nsnc1C1=CCCCN1C has what recorded EC50?
## Output 6.5

---

# TGT: human M4 receptor (Homo sapiens)
# Construct: expressed in transfected cells
# Sequence (P08173 1-479): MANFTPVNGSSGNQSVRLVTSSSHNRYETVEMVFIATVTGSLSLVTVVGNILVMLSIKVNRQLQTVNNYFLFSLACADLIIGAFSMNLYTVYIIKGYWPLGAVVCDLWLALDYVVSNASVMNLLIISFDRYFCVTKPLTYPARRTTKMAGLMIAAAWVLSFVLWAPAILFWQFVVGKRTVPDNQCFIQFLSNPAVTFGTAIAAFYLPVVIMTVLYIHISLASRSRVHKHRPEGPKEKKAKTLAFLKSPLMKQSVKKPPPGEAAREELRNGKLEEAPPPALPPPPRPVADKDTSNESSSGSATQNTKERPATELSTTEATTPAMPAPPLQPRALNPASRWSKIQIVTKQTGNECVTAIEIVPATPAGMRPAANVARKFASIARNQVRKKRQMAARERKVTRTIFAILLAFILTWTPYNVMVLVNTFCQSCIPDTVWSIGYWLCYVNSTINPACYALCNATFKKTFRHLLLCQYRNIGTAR
# ASSAY SUMMARY: SPA GTP (GTPgS) binding curve shift assay, M4
# Assay type: biochemical
# TEST SETTINGS: Emraclidine concentration 3330 nM, read-out: Emax
RESULT TYPE: Emax (%)

>  <MOLECULE>
CCCCCOc1nsnc1C1=CCCCN1C [KTX-517]

>  <Emax, %>
66.8

$$$$
>  <MOLECULE>
CCCCCCCOc1nsnc1C1=CCCCN1C [KTX-593]

>  <Emax, %>
84

$$$$
>  <MOLECULE>
CC1OC2(CS1)CN1CCC2CC1 (stereo not shown) [cevimeline, Cevimeline, reference compound]

>  <Emax, %>
86.3

$$$$
>  <MOLECULE>
CCCCCCOc1nsnc1C1=CCCN(C)C1 [xanomeline, reference compound]

>  <Emax, %>
89.4

$$$$
